target: human progesterone receptor B (Homo sapiens, UniProt P06401); test: Progesterone receptor-antagonistic action in stably transfected SK-N-MC cells, MMTV-LUC reporter (PR-B); details: antagonistic potency vs 0.1 nmol/l promegestone, 24 hours
Sequence (P06401 whole entry): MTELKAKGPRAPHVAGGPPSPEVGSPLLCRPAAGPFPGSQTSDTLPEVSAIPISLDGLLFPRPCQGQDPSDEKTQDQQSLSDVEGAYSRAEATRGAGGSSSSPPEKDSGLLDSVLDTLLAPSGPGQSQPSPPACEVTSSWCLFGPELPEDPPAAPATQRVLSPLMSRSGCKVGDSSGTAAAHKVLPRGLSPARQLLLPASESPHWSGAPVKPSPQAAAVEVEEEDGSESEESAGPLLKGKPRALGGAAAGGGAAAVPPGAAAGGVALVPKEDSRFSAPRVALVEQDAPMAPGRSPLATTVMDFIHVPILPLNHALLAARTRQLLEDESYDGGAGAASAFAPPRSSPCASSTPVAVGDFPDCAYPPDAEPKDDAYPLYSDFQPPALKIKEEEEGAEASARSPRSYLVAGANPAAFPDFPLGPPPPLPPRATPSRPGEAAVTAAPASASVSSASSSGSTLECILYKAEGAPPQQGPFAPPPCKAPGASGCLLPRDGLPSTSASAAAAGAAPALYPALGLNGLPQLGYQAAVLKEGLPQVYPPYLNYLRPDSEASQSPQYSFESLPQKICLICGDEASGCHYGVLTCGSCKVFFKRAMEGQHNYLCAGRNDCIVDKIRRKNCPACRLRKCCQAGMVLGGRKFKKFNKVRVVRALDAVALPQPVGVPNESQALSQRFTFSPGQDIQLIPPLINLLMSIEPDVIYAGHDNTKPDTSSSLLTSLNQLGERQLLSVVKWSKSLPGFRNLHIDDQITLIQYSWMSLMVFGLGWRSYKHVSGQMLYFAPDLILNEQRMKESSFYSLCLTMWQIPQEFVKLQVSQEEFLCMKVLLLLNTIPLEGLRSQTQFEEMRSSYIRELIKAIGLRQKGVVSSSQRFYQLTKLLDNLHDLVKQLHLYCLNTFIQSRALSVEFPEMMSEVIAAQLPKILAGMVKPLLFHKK
measured-parameter: IC50 (pM)
Express your answer in pM, writing the number without its unit.

// sample C[C@]12C[C@H](c3ccc(CNC(=O)c4cccnc4)cc3)C3=C4CCC(=O)C=C4CC[C@H]3[C@@H]1CC[C@@]2(O)C(F)(F)C(F)(F)F , its IC50 was 100

IC50 for CC(C)(O)c1ccc([C@H]2C[C@@]3(C)[C@@H](CC[C@@]3(O)C(F)(F)C(F)(F)F)[C@@H]3CCC4=CC(=O)CCC4=C32)cc1 is 90

Entry C=CCNC(=O)OCc1ccc([C@H]2C[C@@]3(C)[C@@H](CC[C@@]3(O)C(F)(F)C(F)(F)F)[C@@H]3CCC4=CC(=O)CCC4=C32)cc1 , IC50 reported as 100

Consider C[C@]12C[C@H](c3ccc(CNC(=O)Nc4ccc(N5CCCCC5)cc4)cc3)C3=C4CCC(=O)C=C4CC[C@H]3[C@@H]1CC[C@@]2(O)C(F)(F)C(F)(F)F . Its measured IC50 is 200

The measured IC50 associated with CCNC(=O)OCc1ccc([C@H]2C[C@@]3(C)[C@@H](CC[C@@]3(O)C(F)(F)C(F)(F)F)[C@@H]3CCC4=CC(=O)CCC4=C32)cc1 reads 100
